Listed sequences paired with reported self-aminoacylation
test system: biotinyl-Met-oxazolone; test: self-aminoacylation, catalytic enhancement (BMO) (fold over background); higher = more active; k-Seq, kA / k0A0; sequences stand for … in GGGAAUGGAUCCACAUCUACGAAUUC…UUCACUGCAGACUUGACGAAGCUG
Variants at the floor of the assay were thinned out.
# answer = number (no unit)

Look over these answered cases.
CUACCUCAAACAAACGGUCUG [Fam1A.1 aminoacylation ribozyme variant] ... 0.85
AUUCACUUAGGUCAUCGAGUG [Fam2.2 aminoacylation ribozyme variant] ... 2.42
AUGACCGUGGUCAUCGAGUGA [Fam2.1 aminoacylation ribozyme variant] ... 6.71

IN: GET /values?readout=self-aminoacylation&item= AAGUUUGCUAAUUGUCGCAUG [Fam3.1 aminoacylation ribozyme variant]
OUT: 1.18

IN: GET /values?readout=self-aminoacylation&item= ACGUUUGCAAAUAGUCGCAAG [Fam3.1 aminoacylation ribozyme variant]
OUT: 1.38

IN: GET /values?readout=self-aminoacylation&item= AGUACCCUGGUCAUCGAGUGG [Fam2.1 aminoacylation ribozyme variant]
OUT: 5.15

----------
tested on: biotinyl-Phe-oxazolone; test: self-aminoacylation, catalytic enhancement (BFO) (fold over background); higher = more active; k-Seq, kA / k0A0; sequences stand for … in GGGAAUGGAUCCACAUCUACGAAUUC…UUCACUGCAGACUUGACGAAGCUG
This sample holds only a part of the variants without activity.
quantity-measured: self-aminoacylation

CCACACUUUAAGAAAUCGGUC [Fam1B.1 aminoacylation ribozyme variant] ... 0.835
AUCGCCCUGGUCAUCGAGUGA [Fam2.1 aminoacylation ribozyme variant] ... 98.5
AUCCACCUAGGUCAACGGGUG [Fam2.2 aminoacylation ribozyme variant] ... 30.3
AGGUUUGCUAAUAGUCGCAUG [Fam3.1 aminoacylation ribozyme variant] ... 3.56
AACUUUGCUAAUAGUAGCAAG [Fam3.1 aminoacylation ribozyme variant] ... 2.06

Here's the next entry for you.
IN: GET /values?readout=self-aminoacylation&item= CCUCACUUCCAGCAAUCGGUC [Fam1B.1 aminoacylation ribozyme variant]
OUT: 1.23

----------
test system: biotinyl-Leu-oxazolone; experiment: self-aminoacylation, catalytic enhancement (BLO) (fold over background); higher = more active; k-Seq, kA / k0A0; sequences stand for … in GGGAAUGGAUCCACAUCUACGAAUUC…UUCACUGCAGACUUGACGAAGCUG
Variants at the floor of the assay were thinned out.
Note that class boundaries on self-aminoacylation are category 1: < 1; category 2: ≥ 1 and < 4; category 3: ≥ 4

AUUACCCUGGUCAUCCAGUGG [Fam2.1 aminoacylation ribozyme variant] ... category 2
AUUACCUUGGUAAUCGAGUGA [Fam2.1 aminoacylation ribozyme variant] ... category 3
AGUAGCCUGGUCAUCGAGUGA [Fam2.1 aminoacylation ribozyme variant] ... category 3
CUAUUUCAAACAAUCGGUCGG [Fam1A.1 aminoacylation ribozyme variant] ... category 1
AUUCAGCUAGGUCAUCUGGUG [Fam2.2 aminoacylation ribozyme variant] ... category 2

IN: Exam item: assign CCACACAUUAAGCAAUCGGUC [Fam1B.1 aminoacylation ribozyme variant] to the correct category.
OUT: category 1

IN: Exam item: assign AUUCAUCUAGGGCAUCGGGUG [Fam2.2 aminoacylation ribozyme variant] to the correct category.
OUT: category 3

IN: Exam item: assign CUACUUCAGGCAAUCGGUCUG [Fam1A.1 aminoacylation ribozyme variant] to the correct category.
OUT: category 2
